Data provenance is ChEMBL document CHEMBL4428050.

Assignment: determine reported IC50 for the given molecules.
Assay procedure: Inhibition of PI3K p110delta/p85 (unknown origin) using PIP2/ATP as substrate after 1 hr by kinase glo luminescent assay
Set-up: species or system Homo sapiens
Give bare numbers, in nM.

Solved entries (count: 2):
I'd like to know its IC50. The molecule in question is `Nc1cc(C(F)(F)F)c(-c2cc(N3CCOCC3)nc(N3CCOCC3)n2)cn1`
62

Given the entry Nc1cc(C(F)(F)F)c(-c2cc(N3CCOCC3)nc(N3C[C@@H]4OCCO[C@H]4C3)n2)cn1 (racemic) , report its measured IC50.
61

Now look at this one.
Query: IC50; subject: `CS(=O)(=O)N1CCN(C(=O)c2ccc(Nc3nc(-c4cnc(N)cc4C(F)(F)F)cc(N4CCOCC4)n3)cc2)CC1`
13

====

Test system: Bel-7402
Assay procedure: Antiproliferative activity against human Bel7402 cells after 72 hrs by CCK8 assay
Assay type: functional, cell-based
Condition label: Bel-7402, 72 h
I'd be grateful if you could share measured IC50 for these entries.
Give bare numbers, in µM.

Please review the following examples before continuing.
Provide the documented IC50 with Bel-7402 as the system for `Nc1cc(C(F)(F)F)c(-c2cc(N3CCOCC3)nc(N3CCOCC3)n2)cn1`
1.92

What is its IC50 for Bel-7402? Entry: Nc1cc(C(F)(F)F)c(-c2cc(N3C[C@H]4OCCO[C@@H]4C3)nc(N3CCOCC3)n2)cn1 (racemic)
6.43

API: value(readout= IC50, system= Bel-7402, query= Nc1cc(C(F)(F)F)c(-c2nc(N3CCOCC3)nc(N3C[C@H]4OCCO[C@@H]4C3)n2)cn1 (racemic) )
5.9

---
Request: IC50, test system Bel-7402, entry `Nc1cc(C(F)(F)F)c(-c2cc(N3CCOCC3)nc(N3C[C@@H]4OCCO[C@@H]4C3)n2)cn1`
5.82

====

System: NCI-N87
Assay procedure: Antiproliferative activity against human NCI-N87 cells after 72 hrs by CCK8 assay
Type: functional, cell-based
Condition label: Homo sapiens, NCI-N87, 72 h
For each record, write down the corresponding pIC50.
One number for each entry, as −log10 of the molar value.

Suppose we examine the compound Nc1cc(C(F)(F)F)c(-c2cc(N3CCOCC3)nc(N3C[C@@H]4OCCO[C@H]4C3)n2)cn1 (racemic) ; what pIC50 value has been reported?
5.87

Any idea what its pIC50 is? The compound is `Nc1cc(C(F)(F)F)c(-c2cc(N3CCOCC3)nc(N3CCOCC3)n2)cn1`
6.18

# lookup: pIC50 of `CS(=O)(=O)N1CCN(C(=O)c2ccc(Nc3nc(-c4cnc(N)cc4C(F)(F)F)cc(N4CCOCC4)n3)cc2)CC1`
5.37

Now let's try a different one.
Can you share its pIC50? I mean this compound: `CC(/C=C/C(=O)NO)=C\[C@@H](C)C(=O)c1ccc(N(C)C)cc1`
7.22
